Record form. Attribute: IC50. Fill in for each entry.
MEASURED TARGET: Rac GTPase-activating protein 1 (Homo sapiens, UniProt Q9H0H5)
Sequence (Q9H0H5 whole entry): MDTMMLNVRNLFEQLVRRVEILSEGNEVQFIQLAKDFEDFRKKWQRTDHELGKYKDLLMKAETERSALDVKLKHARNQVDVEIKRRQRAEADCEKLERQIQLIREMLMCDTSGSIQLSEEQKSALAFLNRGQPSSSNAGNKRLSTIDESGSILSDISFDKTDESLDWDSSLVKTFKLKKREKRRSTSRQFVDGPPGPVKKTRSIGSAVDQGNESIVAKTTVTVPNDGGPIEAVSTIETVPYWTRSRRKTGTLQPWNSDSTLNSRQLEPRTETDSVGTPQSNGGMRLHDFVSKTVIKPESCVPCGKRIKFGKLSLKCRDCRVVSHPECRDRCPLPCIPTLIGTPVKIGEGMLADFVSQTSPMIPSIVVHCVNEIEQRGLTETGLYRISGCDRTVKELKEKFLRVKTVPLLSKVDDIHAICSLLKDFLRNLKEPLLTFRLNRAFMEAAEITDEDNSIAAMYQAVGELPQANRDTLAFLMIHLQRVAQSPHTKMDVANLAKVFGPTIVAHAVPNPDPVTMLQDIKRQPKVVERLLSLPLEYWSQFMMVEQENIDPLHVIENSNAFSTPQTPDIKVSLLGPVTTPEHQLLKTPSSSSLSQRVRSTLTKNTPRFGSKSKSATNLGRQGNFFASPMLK
ASSAY METHOD TEXT: blockers of MgcRacGAP-driven Rac1 GTP hydrolysis – biochemical, ADP Hunter fluorescence, primary and confirmatory, confirmation (AID 624330)
Assay type: functional
Active and inactive are the calls of the source. No rule for the calls is given here.

Prompt line: Any idea what IC50 was measured for "COc1cc(C2C(=O)c3ccccc3C2=O)ccc1O" ?
Response line: 16.1 µM (active)

Prompt line: What do we get for "COc1cc(/C=N/NC(=O)CCc2ccccc2)ccc1O" ?
Response line: 28.7 µM (active)

Prompt line: Then "O=C1C=CC2(O[C@H](c3ccccc3)[C@@H](c3ccccc3)O2)[C@H](Sc2ccccc2O)C1" ?
Response line: 43.8 µM (active)

Prompt line: Would you kindly repeat that for O=C(C1=C(O)C(=O)N(c2nc3ccc(Cl)cc3s2)C1c1ccco1)c1ccco1 (stereo not drawn) ?
Response line: 118 µM (active)

Prompt line: Another molecule to look at: "CCCCCCCCCCCCCCCC[n+]1ccccc1"
Response line: 61.1 µM (active)

Prompt line: Try this molecule next: "O=C1SC(c2ccccc2)=C/C1=C\N1CCCCC1"
Response line: 45.9 µM (active)

Prompt line: Now try "O=C(CNC1CCCCCC1)Nc1ccccc1N1CCOCC1" .
Response line: 177 µM (active)

Prompt line: Next molecule up: COc1cccc2c1C(=O)c1c(O)c3c(c(O)c1C2=O)C[C@@](O)(C(=O)CO)C[C@@H]3OC1CC(N)C(O)C(C)O1 (stereo partly drawn)
Response line: 53.5 µM (active)

Prompt line: Same for "CN(c1ccccc1)c1ccc(/C=C/[N+](=O)[O-])cc1"
Response line: 23.3 µM (active)

Prompt line: Now consider "Oc1ccc(-c2csc(Nc3ccccn3)n2)cc1" .
Response line: 65.8 µM (active)

Prompt line: Another: COC(C(=O)N/N=C(\C)CC(=O)Nc1ccc(N(C)C)cc1)c1ccccc1 (stereo not drawn)
Response line: 50.3 µM (active)

Prompt line: What do you have for C=C1c2c(Cl)ccc(O)c2C(=O)C2=C(O)[C@]3(O)C(=O)C(C(N)=O)=C(O)[C@@H](N(C)C)[C@@H]3[C@@H](O)[C@H]12.O=C(O)c1cc(S(=O)(=O)O)ccc1O [MECLOCYCLINE SULFOSALICYLATE] ?
Response line: 63 µM (active)

Prompt line: Quick one: "COc1cc(CN(C)CCc2ccccn2)cc(OC)c1OC"
Response line: 101 µM (active)
